tested on: Leishmania donovani; assay: Leishmania intramacrophage assay; type: functional, organism-based; parameters: scale not given: in the data most compounds retested in dose-response had high values; settings: 30.3 µM; […]
The whole screen tested about 69,000 compounds, of which about 1,000 (1.4%) showed an effect of 50% or more. This excerpt belongs to a sample that is enriched for strong results.
quantityKind: Percent Effect
Don't forget the unit after the number, please.

// CCOc1ccc(NC(=O)N2CCNC(=O)C2)c(C(F)(F)F)c1 : Percent Effect value = -5.154%

// CC(C)N(C)Cc1cc(=O)n2c(n1)CN(S(=O)(=O)C1CC1)CCC2.O=C(O)C(F)(F)F : Percent Effect value = 28.49%

// CCOC1COC2(CCN(S(=O)(=O)c3cccc(C)c3)CC2)C1 (stereo unspecified) : Percent Effect value = 23.7%

// CC(=O)N1N=C(COc2ccc(C)cc2)OC1c1ccc(N(C)C)cc1 (stereo unspecified) : Percent Effect value = 54.92%

// COC1COC2(CCN(S(=O)(=O)c3ccc(F)cc3)CC2)C1 (stereo unspecified) : Percent Effect value = 5.953%

// Cn1cnc2c1CCN(CC(=O)N(Cc1ccsc1)C1CC1)C2 : Percent Effect value = 1.808%

// COc1ccc(-c2cc3cccn(CC(=O)N4CCOCC4)c-3n2)cc1 : Percent Effect value = 23.65%

// CC(C)C1SCC(=O)Nc2c1cnn2-c1ccc(F)cc1 (stereo unspecified) : Percent Effect value = -10.63%

// Cc1cccc(S(=O)(=O)N2CCC3(CC2)CC(N(C)C)CO3)c1 (stereo unspecified) : Percent Effect value = 50.39%

// CSCc1noc(CNC(=O)C2CCN(C3CCCCC3)CC2)n1 : Percent Effect value = 24%

// NCC(=O)N1CCCC(O)(CN2CCN(c3ccccc3)CC2)CC1 (stereo unspecified) : Percent Effect value = 24.84%

// CN(C)CCN(C)C(=O)Cn1cccc2cc(-c3ccc(F)cc3)nc1-2 : Percent Effect value = 78.9%

// CS(=O)(=O)N1CCC2(CC1)CC(NCc1ccco1)c1ccccc12.O=C(O)C(F)(F)F (stereo unspecified) : Percent Effect value = 16.74%

// OCC1(NCc2cnc(-c3ccccn3)s2)CCOCC1 : Percent Effect value = -4.185%

// O=C(NCCc1cccs1)[C@H]1CO[C@H]2CCN(CC3CC3)C[C@H]2C1.O=C(O)C(F)(F)F : Percent Effect value = 18.2%

// CN(C)C1COC2(CCN(S(=O)(=O)c3ccc(F)cc3)CC2)C1.O=C(O)C(F)(F)F (stereo unspecified) : Percent Effect value = 52.86%

// CCOC1COC2(CCN(S(=O)(=O)c3ccc(F)cc3)CC2)C1 (stereo unspecified) : Percent Effect value = 12.78%

// CNC(=O)[C@@H]1C[C@H]2CN(Cc3csc(C)n3)C[C@H]2N1C(C)C.O=C(O)C(F)(F)F.O=C(O)C(F)(F)F : Percent Effect value = 29.27%

// O=C(c1cnccn1)N1CCN2C[C@H](OCC3CC3)C[C@H]2C1 : Percent Effect value = -6.525%

// O=C(CN1CCSCC1c1ccccc1)N1CCCC1 (stereo unspecified) : Percent Effect value = -14.01%

// COCCN1CC[C@@H]2OC[C@H](C(=O)N(C)Cc3ccccn3)C[C@@H]2C1 : Percent Effect value = 34.37%

---

tested on: Leishmania donovani; test: Leishmania intramacrophage assay; type: functional, organism-based; parameters: scale not given: in the data most compounds retested in dose-response had high values; conditions: 30.3 µM; […]
Among all 69,000 compounds or so, about 1,000 (1.4%) showed an effect of 50% or more. What follows is part of a selection rich in strong results, with near analogues and random picks from the rest.
quantityKind: Percent Effect (%)
Give just the numeric value; % need not be written.

// CN(C)CCNC(=O)CCn1ncc2c(Cl)cccc21 : Percent Effect value = 55.96

// CCc1nccn1-c1cccc(C2CCCN2)n1.Cl.Cl (stereo unspecified) : Percent Effect value = 6.16

// Cc1nc(C(=O)N(C)C)nn1-c1ccccc1C(C)C : Percent Effect value = 17.02

// CCN1CCn2c(C)cnc2C12CCN(C(=O)N(C)C)CC2.O=C(O)C(F)(F)F.O=C(O)C(F)(F)F : Percent Effect value = 6.426

// CCS(=O)(=O)CCN(C)Cc1cc(C)ccc1OC : Percent Effect value = 6.115

// CC1CCCN(CCCNC(=O)Cc2csc(-c3ccoc3)n2)C1 (stereo unspecified) : Percent Effect value = 9.746

---

tested on: Leishmania donovani; test: Leishmania intramacrophage assay; assay type: functional, organism-based; parameters: scale not given: in the data most compounds retested in dose-response had high values; settings: 30.3 µM; […]
About 1,000 (1.4%) of roughly 69,000 compounds showed an effect of 50% or more. What follows is part of a selection rich in strong results, with near analogues and random picks from the rest.
quantityKind: Percent Effect (%)
Give just the numeric value; % need not be written.

// Cc1cc(=O)[nH]c(-n2nc(C)c(CCC(=O)NCC(C)C)c2C)n1 : Percent Effect value = 15.57

// Cc1cc2cc(CNC3CCN(CC(=O)N(C)C)CC3)oc2cc1C : Percent Effect value = 25.29

// O=C(c1cc(-c2ccn(CC3CC3)n2)n2ccccc12)N1CCOCC1 : Percent Effect value = 88.37

// Cc1nc(C2CCCN(C(=O)c3cc(-c4ccccc4)[nH]n3)C2)no1 (stereo unspecified) : Percent Effect value = 9.064

// O=C(c1cc(-c2ccn(CC3CC3)n2)n2ccccc12)N1CCCO1 : Percent Effect value = 27.45

// O=C(O)c1cc(-c2ccn(CC3CC3)n2)n2ccccc12 : Percent Effect value = 20

---

test system: Leishmania donovani; assay: Leishmania intramacrophage assay; format: functional, organism-based; parameters: scale not given: in the data most compounds retested in dose-response had high values; settings: 30.3 µM; […]
Out of some 69,000 compounds screened, about 1,000 (1.4%) showed an effect of 50% or more. This is one part of a sample in which strong results are shown more often than they occur.
quantityKind: Percent Effect
Don't forget the unit after the number, please.

// CCO[C@@H]1CCN(C(=O)c2cnc(C)cn2)[C@@H]1Cc1cnn(C)c1 : Percent Effect value = 53.66%

// Cc1cc(CN(C)C2CCN(c3cccc(-c4cscn4)c3)CC2)on1 : Percent Effect value = 19.61%

// c1ccc(-c2cccc(N3CCC(NCCc4cscn4)CC3)c2)cc1 : Percent Effect value = 97.96%

// Cc1cc(CN2CCN(C(C)C)C(CCO)C2)[nH]n1 (stereo not drawn) : Percent Effect value = 0.4197%

// Cc1ccsc1CNCCCOc1ccccn1 : Percent Effect value = -17.78%

// CN(Cc1cnn(C)c1)C1CCN(c2cccc(-c3cscn3)c2)CC1 : Percent Effect value = 12%

// Cn1cc(CN2Cc3cn(C)nc3C(COCC3CC3)C2)cn1 (stereo not drawn) : Percent Effect value = 53.65%

// Cn1cc2c(n1)C(COCC1CC1)CN(Cc1ccsc1)C2 (stereo not drawn) : Percent Effect value = -18.37%

// COCCO[C@H]1CCN(C(=O)c2cnccn2)[C@H]1Cc1ccncc1 : Percent Effect value = 54.37%

// COCCO[C@H]1CCN(C(=O)c2ccsc2)[C@H]1Cc1ccncc1 : Percent Effect value = 26.31%

// c1ccc(OCCCNCc2cccs2)nc1 : Percent Effect value = 58.66%

// COc1ccc(CN2Cc3cn(C)nc3C(COCC3CC3)C2)cc1 (stereo not drawn) : Percent Effect value = 16.82%

// CCCc1nc(N2CC[C@@H](c3ccc4c(c3)OCO4)[C@H](O)C2)no1 : Percent Effect value = 11.09%

// Cc1nc(N2CC[C@@H](c3ccc4ccccc4c3)[C@H](O)C2)no1 : Percent Effect value = 18.28%

// CCCc1nc(N2CC[C@@H](c3ccc4ccccc4c3)[C@H](O)C2)no1 : Percent Effect value = 50.36%

// CCO[C@@H]1CCN(C(=O)N(C)C)[C@@H]1Cc1cnn(C)c1 : Percent Effect value = 27.5%

// O=C(O)C(F)(F)F.O=C(c1ccoc1)N1C[C@@H]2OCCN(c3ncccn3)[C@@H]2C1 : Percent Effect value = 10.14%

// CCS(=O)(=O)NCC(=O)Nc1cc(CC(C)(C)C)n[nH]1 : Percent Effect value = -13.95%

// CC(C)CC(C)NC1CCN(c2cccc(-c3cscn3)c2)CC1 (stereo not drawn) : Percent Effect value = 17.78%

// CC(=O)Nc1ccc(CNCC(O)c2ccccc2)cc1 (stereo not drawn) : Percent Effect value = -2.839%

// CC(C(N)=O)N(C)Cc1ccccc1C(F)(F)F (stereo not drawn) : Percent Effect value = -40.32%

// CN(Cc1ccccc1C(F)(F)F)C(C(N)=O)c1ccccc1 (stereo not drawn) : Percent Effect value = 68.32%

// CN(Cc1nccs1)C1CCN(c2cccc(-c3cscn3)c2)CC1 : Percent Effect value = 8.314%
